Source: paper PMC6928863

- tgt: human serum albumin (HSA) (Homo sapiens)
- Construct: gene ALB
- Sequence (P02768 25-609): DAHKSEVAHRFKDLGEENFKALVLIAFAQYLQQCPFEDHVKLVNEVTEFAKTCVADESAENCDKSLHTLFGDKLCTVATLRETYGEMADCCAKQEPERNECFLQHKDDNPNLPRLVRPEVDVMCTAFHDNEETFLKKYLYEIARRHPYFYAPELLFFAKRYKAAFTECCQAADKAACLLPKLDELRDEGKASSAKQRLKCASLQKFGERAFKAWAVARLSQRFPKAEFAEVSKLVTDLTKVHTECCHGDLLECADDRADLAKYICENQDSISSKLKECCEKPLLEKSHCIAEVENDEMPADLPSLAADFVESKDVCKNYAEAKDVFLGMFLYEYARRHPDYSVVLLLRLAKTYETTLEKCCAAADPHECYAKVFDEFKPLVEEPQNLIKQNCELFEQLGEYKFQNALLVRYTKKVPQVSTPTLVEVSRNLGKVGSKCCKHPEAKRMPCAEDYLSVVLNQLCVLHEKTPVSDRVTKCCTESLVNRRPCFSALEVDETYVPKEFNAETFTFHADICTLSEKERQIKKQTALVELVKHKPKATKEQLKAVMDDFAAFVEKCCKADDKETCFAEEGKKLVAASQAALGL
- protocol: fluorescence titration (one-site fit), Job's plot […], site-marker displacement
- Assay type: binding
measured quantity: Kd (µM)
Give just the numeric value; µM need not be written.

Task: I'd like to know its Kd. The molecule in question is CCN(CC)c1ccc(-c2cc3c(s2)c(C(=O)O)cc(=O)n3C)cc1 [compound 4, KF 4]
Output: 5.4
